# System: adenylate cyclase
# test protocol: Filtration binding assay, ^125 I-labelled derivative 19 (6-^125 I-HPP-Fsk) to bovine brain membranes
# condition info: bovine brain membranes, 20° C., 60 min
observed property: inhibition of 6-^125 I-HPP-Fsk binding

>  <compound>
OC[C@H]1OC(O)[C@H](O)[C@@H](O)[C@@H]1O (stereo partly drawn) [D-glucose]

>  <observed property>
inhibition of 6-^125 I-HPP-Fsk binding

>  <reported measurement>
not inhibited

$$$$
>  <compound>
C=C1C(C)C2C(Cc3ccccc3)NC(=O)C23OC(=O)/C=C/C(O)CCCC(C)C/C=C/C3C1O (stereo not shown) [cytochalasin B]

>  <observed property>
inhibition of 6-^125 I-HPP-Fsk binding

>  <reported measurement>
not inhibited

$$$$

###

# assay target: glucose transporter (Homo sapiens, UniProt P11166)
# Construct: Crude membranes from human red blood cells; from tissue; host or cells: human red blood cells, membranes
# Sequence (P11166 whole entry): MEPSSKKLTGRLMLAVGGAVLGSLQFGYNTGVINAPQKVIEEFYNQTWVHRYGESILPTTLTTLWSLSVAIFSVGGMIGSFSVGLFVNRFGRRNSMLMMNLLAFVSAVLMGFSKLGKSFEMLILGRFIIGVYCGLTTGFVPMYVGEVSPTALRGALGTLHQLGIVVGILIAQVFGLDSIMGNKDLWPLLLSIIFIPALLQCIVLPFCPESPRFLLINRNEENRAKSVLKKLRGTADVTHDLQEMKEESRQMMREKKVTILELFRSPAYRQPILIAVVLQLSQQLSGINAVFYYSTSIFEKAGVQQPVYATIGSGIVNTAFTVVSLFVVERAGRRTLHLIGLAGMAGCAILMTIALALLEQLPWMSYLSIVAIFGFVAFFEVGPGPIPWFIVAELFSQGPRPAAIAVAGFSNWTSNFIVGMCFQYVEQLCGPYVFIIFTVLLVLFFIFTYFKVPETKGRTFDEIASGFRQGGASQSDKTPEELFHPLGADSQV
# test protocol: Filtration binding assay, ^125 I-labelled derivative 8 (7-^125 I-HPP-Fsk) to human red blood cell membranes
# condition info: membranes from human red blood cells; read-out: affinity of 7-^125 I-HPP-Fsk

>  <chemical smiles>
C=C[C@@]1(C)CC(=O)[C@]2(O)[C@@]3(C)[C@@H](O)CCC(C)(C)[C@@H]3[C@H](O)[C@H](OC(=O)NCCNC(=O)CCc3ccc(O)c([125I])c3)[C@@]2(C)O1

>  <Kd (nM)>
30

$$$$

###

# assay target: adenylate cyclase
# test protocol: Filtration binding assay, ^125 I-labelled derivative 19 (6-^125 I-HPP-Fsk) to bovine brain membranes
# condition info: membranes from bovine brain

>  <compound>
C=C[C@@]1(C)CC(=O)[C@]2(O)[C@@]3(C)[C@@H](O)CCC(C)(C)[C@@H]3[C@H](OC(=O)NCCNC(=O)CCc3ccc(O)c([125I])c3)[C@H](OC(C)=O)[C@@]2(C)O1 [Derivative 19]

>  <Kd>
~25 nM

$$$$
